- Assay: Activators of T cell receptors: Hit Validation;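 also: cytokine measured is secreted IL-2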
- Stated conditions: primary human leukocytes, cytokine release by HTRF, 48 h, TCR-stimulated with anti-CD3 beads; series mostly up to 46.1 µM
Inconclusive results are not listed. Active and inactive are the calls of the source. Calls follow the shape of the dose curve; as a rule, active = well fitted activation curve with a large enough effect; inconclusive = small, poorly fitted or top-dose-only effect; inactive = no such curve, though single readings can be large or run the other way.
Field 'call' accepts active, inactive

Prompt line: Each compound tested received a call. Report the one for CCn1nnnc1NC(=O)c1ccc2ccccc2c1 .
Response line: inactive

Prompt line: Please indicate how the test categorized COc1ccc(CN(C)C(C)C(=O)N(C)CC(=O)Nc2ccc(C)cc2)cc1F (stereo unspecified) .
Response line: inactive

Prompt line: For CCCCN1CCC(COC(=O)c2cc(Cl)c(N)c3c2OCCO3)CC1 , what call appears in the results of this test?
Response line: inactive

====

- Assay: Activators of T cell receptors: Hit Validation;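 also: cytokine measured is secreted IL-2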
- Stated conditions: primary human leukocytes, cytokine release by HTRF, 48 h, TCR-stimulated with anti-CD3 beads; series mostly up to 46.1 µM
Inconclusive results are not listed. Active and inactive are the calls of the source. Calls follow the shape of the dose curve; as a rule, active = well fitted activation curve with a large enough effect; inconclusive = small, poorly fitted or top-dose-only effect; inactive = no such curve, though single readings can be large or run the other way.
The reply should be one of these categories: active, inactive

Recorded results for 3 molecules are shown here.
CCN1CNC(=S)N(Cc2ccccc2)C1 | inactive
COc1ccc(S(=O)(=O)Nc2ccc3cn[nH]c3c2)cc1[N+](=O)[O-] | inactive
Cc1cc(=O)[nH]c(N/N=C/c2cccs2)n1 | inactive

Prompt line: How did this test come out for CCOc1cc(/C=N/NC(=S)Nc2ccccc2C(F)(F)F)ccc1OCC(=O)N1CCOCC1 ?
Response line: inactive

Prompt line: Assay outcome for CC(C)NC(=O)CCCn1c(=S)[nH]c2cc3c(cc2c1=O)OCO3 : what was it?
Response line: inactive

Prompt line: Returns: the outcome recorded for COc1ccccc1CC(=O)NNC(=O)CN(C)S(=O)(=O)c1ccc(Cl)cc1 in this assay.
Response line: inactive

====

- Assay: Activators of T cell receptors: Hit Validation;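 also: cytokine measured is secreted IL-2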
- Stated conditions: primary human leukocytes, cytokine release by HTRF, 48 h, TCR-stimulated with anti-CD3 beads; series mostly up to 46.1 µM
Results filed as inconclusive are left out. Activity calls are given as the source filed them. Calls follow the shape of the dose curve; as a rule, active = well fitted activation curve with a large enough effect; inconclusive = small, poorly fitted or top-dose-only effect; inactive = no such curve, though single readings can be large or run the other way.
Endpoint name: outcome

Worked examples follow.
Cc1cccc(NC(=O)c2sc3nc(N)c(C#N)cc3c2N)c1 | inactive
COc1ccc(OC)c(NC(=O)COC(=O)c2ccc(OC)c(S(=O)(=O)N3CCOCC3)c2)c1 | inactive
COc1ccc(C(=O)Nc2cccc(NC(C)=O)c2)cc1OC | inactive
CC(C)c1nnc(SCC(=O)N2CCOCC2)n1C | inactive
COc1ccc(CN2CCN(C(=O)c3cc(C4CC4)nn3-c3ccccc3)CC2)cc1F | inactive

Prompt line: Given CC1CCCC(C)N1C(=O)COC(=O)C12CC3CC(CC(Cl)(C3)C1)C2 (configuration not stated) , respond with its outcome.
Response line: inactive

Prompt line: Give reported outcome value for COc1ccc(OC)c(NC(=O)CSc2nc3[nH]c(=O)cc(O)c3s2)c1
Response line: inactive

Prompt line: Give reported outcome value for CC1(C)Cc2cccc(OCC(=O)NCc3ccc(F)cc3)c2O1
Response line: inactive

Prompt line: Provide only the value of recorded outcome for c1ccc(Sc2ccccn2)cc1
Response line: inactive

Prompt line: Return outcome for the following molecule: COc1cccc(CNC(=O)c2ccc(Cl)c(S(=O)(=O)N3CCOCC3)c2)c1
Response line: inactive

Prompt line: Supply recorded outcome for COc1ccc(S(=O)(=O)N2CCN(C(=O)CCc3c[nH]c4ccccc34)CC2)cc1 here.
Response line: inactive

Prompt line: Tell me measured outcome for CCN(CC(=O)Nc1ccccc1C(F)(F)F)C(=O)c1ccccc1Sc1ccccc1C#N please.
Response line: inactive

Prompt line: Identify the reported outcome for the following entry. Cc1cc(C)c(-c2csc(NC(=O)C3=NN(c4ccccc4)C(=O)CC3)n2)c(C)c1
Response line: inactive
